Biological target: HDAC 6 (Homo sapiens, UniProt Q9UBN7)
Sequence (Q9UBN7 whole entry): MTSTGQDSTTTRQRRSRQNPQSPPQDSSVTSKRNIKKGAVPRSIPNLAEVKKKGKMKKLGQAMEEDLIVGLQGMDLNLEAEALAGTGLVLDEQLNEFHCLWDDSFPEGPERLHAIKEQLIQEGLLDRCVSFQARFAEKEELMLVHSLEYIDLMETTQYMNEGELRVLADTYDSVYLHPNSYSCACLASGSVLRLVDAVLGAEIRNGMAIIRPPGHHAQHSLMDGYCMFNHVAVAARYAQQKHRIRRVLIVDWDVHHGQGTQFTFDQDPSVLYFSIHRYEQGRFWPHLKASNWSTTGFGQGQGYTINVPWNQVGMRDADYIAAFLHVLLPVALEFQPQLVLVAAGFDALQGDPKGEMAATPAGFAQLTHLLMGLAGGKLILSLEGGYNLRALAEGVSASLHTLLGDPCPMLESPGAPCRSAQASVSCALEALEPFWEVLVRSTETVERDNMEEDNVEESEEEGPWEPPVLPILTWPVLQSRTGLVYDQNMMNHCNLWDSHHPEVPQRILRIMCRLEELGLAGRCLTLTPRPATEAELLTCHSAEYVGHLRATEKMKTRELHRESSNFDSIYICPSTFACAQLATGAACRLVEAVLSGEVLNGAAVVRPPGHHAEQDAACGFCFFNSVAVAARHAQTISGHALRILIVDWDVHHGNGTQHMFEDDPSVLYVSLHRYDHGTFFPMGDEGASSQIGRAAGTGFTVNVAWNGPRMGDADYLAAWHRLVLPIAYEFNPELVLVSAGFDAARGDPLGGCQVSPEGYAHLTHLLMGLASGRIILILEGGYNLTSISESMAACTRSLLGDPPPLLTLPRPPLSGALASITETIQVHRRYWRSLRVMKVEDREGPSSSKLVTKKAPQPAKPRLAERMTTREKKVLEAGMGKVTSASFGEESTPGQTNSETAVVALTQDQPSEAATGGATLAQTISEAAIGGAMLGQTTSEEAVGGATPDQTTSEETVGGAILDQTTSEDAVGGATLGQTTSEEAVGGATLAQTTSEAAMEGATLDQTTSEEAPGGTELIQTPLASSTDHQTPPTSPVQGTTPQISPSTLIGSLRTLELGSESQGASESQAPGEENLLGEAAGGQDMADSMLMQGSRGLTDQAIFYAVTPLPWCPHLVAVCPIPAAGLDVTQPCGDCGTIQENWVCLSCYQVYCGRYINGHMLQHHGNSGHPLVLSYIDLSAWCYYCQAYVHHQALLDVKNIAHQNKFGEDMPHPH
Assay: HDAC 6 activity at fixed concentration (Table 2)
Type: biochemical
Set-up: unit not given here
Conditions: compound at 50 nM
Hi, to clarify the labels: 1.0 covers HDAC 6 at 50 nM from 30 upward, 0.0 covers anything below 30.

Ask: Tell me whether HDAC 6 at 50 nM is at least 30 here: O=C(Nc1cccc2c1OC(C(=O)NO)CC2)OCc1ccccc1 (stereo not shown)
Result: 0.0

Ask: Tell me whether HDAC 6 at 50 nM is at least 30 here: O=C(NCc1ccc(Cl)c(C(F)(F)F)c1)Nc1ccc2c(c1)CCC(C(=O)NO)O2 (stereo not shown)
Result: 0.0

Ask: Tell me whether HDAC 6 at 50 nM is at least 30 here: O=C(NO)[C@H]1CCc2ccc(OCc3ccc(Cl)cc3)cc2O1
Result: 1.0

Ask: Tell me whether HDAC 6 at 50 nM is at least 30 here: CN1CC(C(=O)NO)Oc2ccccc21 (stereo not shown)
Result: 1.0

Ask: Tell me whether HDAC 6 at 50 nM is at least 30 here: COc1ccc(CNC(=O)Nc2ccc3c(c2)CCC(C(=O)NO)O3)cc1 (stereo not shown)
Result: 0.0

Ask: Tell me whether HDAC 6 at 50 nM is at least 30 here: COc1ccc(COC(=O)Nc2ccc3c(c2)CCC(C(=O)NO)O3)cc1 (stereo not shown)
Result: 1.0

Ask: Tell me whether HDAC 6 at 50 nM is at least 30 here: COc1ccc(-c2ccc3c(c2)OC(C(=O)NO)CC3)cc1 (stereo not shown)
Result: 0.0

Ask: Tell me whether HDAC 6 at 50 nM is at least 30 here: O=C(NO)C1CCc2ccc(OCc3ccccn3)cc2O1 (stereo not shown)
Result: 0.0

Ask: Tell me whether HDAC 6 at 50 nM is at least 30 here: O=C(NO)C1CCc2ccc(OCc3ccc(F)cc3)cc2O1 (stereo not shown)
Result: 0.0

Ask: Tell me whether HDAC 6 at 50 nM is at least 30 here: O=C(Nc1ccc2c(c1)CCC(C(=O)NO)O2)OCc1ccccc1 (stereo not shown)
Result: 1.0

Ask: Tell me whether HDAC 6 at 50 nM is at least 30 here: O=C(NO)C1CCc2cc(CCCOc3ccc(F)cc3)ccc2O1 (stereo not shown)
Result: 1.0

Ask: Tell me whether HDAC 6 at 50 nM is at least 30 here: COc1cccc(COC(=O)Nc2cccc3c2O[C@H](C(=O)NO)CC3)c1
Result: 1.0

Ask: Tell me whether HDAC 6 at 50 nM is at least 30 here: O=C(NO)C1CCc2ccc(OCc3ccc(Cl)cc3)cc2O1 (stereo not shown)
Result: 1.0

Ask: Tell me whether HDAC 6 at 50 nM is at least 30 here: O=C(NCCc1c[nH]c2ccccc12)Nc1cccc2c1OC(C(=O)NO)CC2 (stereo not shown)
Result: 0.0

---

Molecular target: HDAC 6 (Homo sapiens, UniProt Q9UBN7)
Test: HDAC 6 activity at fixed concentration (Table 2)
Assay type: biochemical
Set-up: unit not given here
Conditions: compound at 50 nM
READOUT_NAME: HDAC 6 at 50 nM
Reply with just the number.

Here's what some known entries look like.
O=C(NCc1cccc(S(F)(F)(F)(F)F)c1)Nc1ccc2c(c1)CCC(C(=O)NO)O2 (stereo not drawn)	34
O=C(NCc1ccccc1)Nc1cccc2c1OC(C(=O)NO)CC2 (stereo not drawn)	28

Ask: Value lookup for HDAC 6 at 50 nM; key = C#Cc1ccc2c(c1)CCC(C(=O)NO)O2 (stereo not drawn)
Result: 25

Ask: Value lookup for HDAC 6 at 50 nM; key = O=C(Nc1cccc2c1O[C@H](C(=O)NO)CC2)OCc1ccc(Cl)c(Cl)c1
Result: 45

These entries and their values trace back to patent US20240051931A1.
